B1: Osa-1-4 twister ribozyme (parent)
chain: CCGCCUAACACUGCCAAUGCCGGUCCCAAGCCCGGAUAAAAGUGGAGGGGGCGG

variants of: B1; test: self-cleavage, relative activity (ratio to wild type); higher = more cleavage; co-transcriptional
Listed here: items and their measured self-cleavage.
Just the number.

See these solved cases before continuing.
• C27G C9A = 0.03
• A28U G44C = 0.78
• A28C G53U = 0.23
• A10C A41G = 0.11
• A10G C33U = 0.33
• G47U G49C = 0.04
• A8U C25G = 0.05
• G44A U24A = 0.06
• G42A G50C = 0.64
• G30U U24G = 0.01

Exercise: Answer with the recorded self-cleavage for the variant listed here: A28C G23C
Key: 0.05

Exercise: Please indicate self-cleavage recorded for A41C G22C
Key: 0.05

Exercise: Indicate the recorded self-cleavage value for this variant: A40C G22A
Key: 0.09

Exercise: # return recorded self-cleavage for input A28G U43A
Key: 0.14

Exercise: Input A10U G19U , output reported self-cleavage.
Key: 0.02

meta.source: the RNAGym collection of RNA variant scans (doi:10.1002/anie.201605470)
